Assay Protocol: Pharmacokinetics in Cynomolgus monkeys, single subcutaneous or intravenous dose
Type: in vivo
Test Context: both sexes, cynomolgus monkey, plasma, sc, 190 nmol/kg, single subcutaneous dose 190 nmol/kg, individual animal, read-out: CL/F (converted)
*1 amine or outer side, *2 acyl side, *3 side chain or, on linkers, in order; H or OH if unused. [ ]: non-standard residue; d: D form. The star is where a group is joined. C20 diacid = O=C(O)CCCCCCCCCCCCCCCCCCC(=O)*; γGlu = O=C(O)[C@H](CCC(=O)[*:2])N[*:1]; εLys = N[C@@H](CCCCN[*:1])C(=O)[*:2]; αMeL = CC(C)C[C@](C)(N)C(=O)O; AEEA = NCCOCCOCC(=O)O; Aib = CC(C)(N)C(=O)O
Value Type: CL/F (mL/day/kg)
Give the value in mL/day/kg but do not write mL/day/kg after it.

// CL/F lookup, key: {C20 diacid-εLys-AEEA-γGlu}-GSPSIVTS[αMeL]DVPT[Aib][αMeL]LQKILEQERAEKARQQATEAAEILAQV-NH2 [SEQ ID NO: 25]
14.4

###

Assay Protocol: Pharmacokinetics in Sprague Dawley rats, single subcutaneous or intravenous dose (incl. 10, 30, 100 nmol/kg dose response)
Type: in vivo
Test Context: rat, plasma; male Sprague Dawley rats; single intravenous dose 190 nmol/kg; Mean; read-out: C0
*1 amine or outer side, *2 acyl side, *3 side chain or, on linkers, in order; H or OH if unused. [ ]: non-standard residue; d: D form. The star is where a group is joined. C20 diacid = O=C(O)CCCCCCCCCCCCCCCCCCC(=O)*; γGlu = O=C(O)[C@H](CCC(=O)[*:2])N[*:1]; εLys = N[C@@H](CCCCN[*:1])C(=O)[*:2]; αMeL = CC(C)C[C@](C)(N)C(=O)O; AEEA = NCCOCCOCC(=O)O; Aib = CC(C)(N)C(=O)O
Value Type: C0

Need C0, item {C20 diacid-εLys-AEEA-γGlu}-GSPSIVTS[αMeL]DVPT[Aib][αMeL]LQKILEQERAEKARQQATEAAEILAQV-NH2 [SEQ ID NO: 25]
2920 nM

###

Assay Protocol: Pharmacokinetics in Sprague Dawley rats, single subcutaneous or intravenous dose (incl. 10, 30, 100 nmol/kg dose response)
Assay type: in vivo
Test Context: male, Sprague Dawley, rat, plasma, sc, 100 nmol/kg, dose response, single subcutaneous dose 100 nmol/kg, individual animal, read-out: Tmax
*1 amine or outer side, *2 acyl side, *3 side chain or, on linkers, in order; H or OH if unused. Side-chain parts run from the residue outwards. [ ]: non-standard residue; d: D form. The star is where a group is joined. C20 diacid = O=C(O)CCCCCCCCCCCCCCCCCCC(=O)*; γGlu = O=C(O)[C@H](CCC(=O)[*:2])N[*:1]; εLys = N[C@@H](CCCCN[*:1])C(=O)[*:2]; pGlu = O=C1CC[C@@H](C(=O)O)N1; αMeL = CC(C)C[C@](C)(N)C(=O)O; AEEA = NCCOCCOCC(=O)O; Aib = CC(C)(N)C(=O)O
Here, each record is paired with measured Tmax data.
# value in h; strip the unit string

Substance: Ac-GSPSIVTS[αMeL]DVPT[Aib][αMeL]LQKILEQERAEKARQQAK([γGlu-AEEA-εLys-C20 diacid])EAAEILAQV-NH2 [SEQ ID NO: 1]
Unit Abbreviation: h
Tmax: 24
--
Substance: {C20 diacid-εLys-AEEA-γGlu}-GSPSIVTS[αMeL]DVPT[Aib][αMeL]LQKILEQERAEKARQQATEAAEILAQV-NH2 [SEQ ID NO: 25]
Unit Abbreviation: h
Tmax: 24

# context switch: different substance, same Tmax
Given [pGlu]GSPSGIVTS[αMeL]DVPT[Aib][αMeL]LQKILEQERAEKARQQAK([γGlu-AEEA-εLys-C20 diacid])EAAEILAQV-NH2 [SEQ ID NO: 22] , state its recorded Tmax.
24

Reference source for all entries: patent US20250163119A1
